system: Pseudomonas aeruginosa ATCC 27853; test: Injectable formulations on mice infected with peritonitis; format: in vivo, ICR mice; conditions: 5 mg/kg via tail vein, twice a day for 3 days, n = 10
Non-standard residues stand in square brackets, D forms with d. Residues, ends and D or L forms follow the SMILES beside them. d2Nal = N[C@H](Cc1ccc2ccccc2c1)C(=O)O; dNle = CCCC[C@@H](N)C(=O)O
Entries and their measured Number of mice that died on each day after infection: day 3 follow.
reportedMetric: Number of mice that died on each day after infection: day 3

| compound | measuredValue |
| --- | --- |
| CC(=O)N[C@H](CCCNC(=N)N)C(=O)N[C@H](CCCNC(=N)N)C(=O)N[C@H](CC(C)C)C(=O)N[C@H](CC(C)C)C(=O)N[C@H](Cc1ccc2ccccc2c1)C(=O)N[C@H](CCCNC(=N)N)C(=O)N[C@H](CC(C)C)C(=O)N[C@H](CCCNC(=N)N)C(=O)N[C@H](Cc1ccc2ccccc2c1)C(=O)N[C@H](CCCNC(=N)N)C(=O)N[C@H](CCCNC(=N)N)C(N)=O [LV-1] (Ac-[dR][dR][dL][dL][d2Nal][dR][dL][dR][d2Nal][dR][dR]-NH2) | 1 Mouse |
| CCCC[C@@H](NC(=O)[C@@H](CCCCN)NC(=O)[C@@H](CCCNC(=N)N)NC(C)=O)C(=O)N[C@H](CCCC)C(=O)N[C@H](Cc1ccc2ccccc2c1)C(=O)N[C@H](CCCNC(=N)N)C(=O)N[C@H](CCCC)C(=O)N[C@H](CCCCN)C(=O)N[C@H](Cc1ccc2ccccc2c1)C(=O)N[C@H](CCCNC(=N)N)C(=O)N[C@H](CCCCN)C(N)=O [LV-12] (Ac-[dR][dK][dNle][dNle][d2Nal][dR][dNle][dK][d2Nal][dR][dK]-NH2) | 2 Mouse |
| CC(=O)N[C@H](CCCCN)C(=O)N[C@H](CCCCN)C(=O)N[C@H](CC(C)C)C(=O)N[C@H](CC(C)C)C(=O)N[C@H](Cc1ccc2ccccc2c1)C(=O)N[C@H](CCCCN)C(=O)N[C@H](CC(C)C)C(=O)N[C@H](CCCCN)C(=O)N[C@H](Cc1ccc2ccccc2c1)C(=O)N[C@H](CCCCN)C(=O)N[C@H](CCCCN)C(N)=O [LV-17] (Ac-[dK][dK][dL][dL][d2Nal][dK][dL][dK][d2Nal][dK][dK]-NH2) | 1 Mouse |

---

test system: carbapenem-resistant Klebsiella pneumoniae (CRKP); assay type: cell-based; conditions: drug-resistant strain CRKP
Non-standard residues stand in square brackets, D forms with d. PEG2000 = polyethylene glycol 2000, conjugated to the N-terminus; PEG4000 = polyethylene glycol 4000, conjugated to the C-terminus; PEG200 = polyethylene glycol 200, conjugated to the C-terminus; PEG500 = polyethylene glycol 500, conjugated to the C-terminus; 2Nal = N[C@@H](Cc1ccc2ccccc2c1)C(=O)O; PEG1000 = polyethylene glycol 1000
Entries and their measured MIC CRKP follow.

| substance | MIC CRKP [µg/mL] |
| --- | --- |
| PEG2000-RKLLXRLKXRK-NH2 [LV-29] (PEG2000-RKLL[2Nal]RLK[2Nal]RK-NH2) [polyethylene glycol 2000 conjugated to N-terminal; X=3-(2-naphthyl)-alanine] | 8 |
| Ac-RKLLXRLKXRK-PEG500 [LV-27] (Ac-RKLL[2Nal]RLK[2Nal]RK-PEG500) [polyethylene glycol 500 conjugated to C-terminal; X=3-(2-naphthyl)-alanine] | 4 |
| Ac-RKLLXRLKXRK-PEG1000 [LV-28] (Ac-RKLL[2Nal]RLK[2Nal]RK-PEG1000) [polyethylene glycol 1000 conjugated to C-terminal; X=3-(2-naphthyl)-alanine] | 4 |
| Ac-RKLLXRLKXRK-PEG200 [LV-26] (Ac-RKLL[2Nal]RLK[2Nal]RK-PEG200) [polyethylene glycol 200 conjugated to C-terminal; X=3-(2-naphthyl)-alanine] | 2 |
| Ac-RKLLXRLKXRK-PEG4000 [LV-30] (Ac-RKLL[2Nal]RLK[2Nal]RK-PEG4000) [polyethylene glycol 4000 conjugated to C-terminal; X=3-(2-naphthyl)-alanine] | 4 |

---

tested on: Escherichia coli ATCC 25922; assay type: cell-based
Non-standard residues stand in square brackets, D forms with d. Residues, ends and D or L forms follow the SMILES beside them. dPhe(3,4-Cl2) = N[C@H](Cc1ccc(Cl)c(Cl)c1)C(=O)O; dPhe(3,4-F2) = N[C@H](Cc1ccc(F)c(F)c1)C(=O)O; d2Nal = N[C@H](Cc1ccc2ccccc2c1)C(=O)O

| molecule | MIC Escherichia coli ATCC 25922 (µg/mL) |
| --- | --- |
| CC(=O)N[C@H](CCCNC(=N)N)C(=O)N[C@H](CCCCN)C(=O)N[C@H](CC(C)C)C(=O)N[C@H](CC(C)C)C(=O)N[C@H](Cc1ccc(Cl)c(Cl)c1)C(=O)N[C@H](CCCCN)C(=O)N[C@H](CC(C)C)C(=O)N[C@H](CCCCN)C(=O)N[C@H](Cc1ccc(Cl)c(Cl)c1)C(=O)N[C@H](CCCCN)C(=O)N[C@H](CCCNC(=N)N)C(N)=O [LV-8] (Ac-[dR][dK][dL][dL][dPhe(3,4-Cl2)][dK][dL][dK][dPhe(3,4-Cl2)][dK][dR]-NH2) | 2 |
| CC(=O)N[C@H](CCCCN)C(=O)N[C@H](CCCNC(=N)N)C(=O)N[C@H](CC(C)C)C(=O)N[C@H](CC(C)C)C(=O)N[C@H](Cc1ccc2ccccc2c1)C(=O)N[C@H](CCCCN)C(=O)N[C@H](CC(C)C)C(=O)N[C@H](CCCCN)C(=O)N[C@H](Cc1ccc2ccccc2c1)C(=O)N[C@H](CCCCN)C(=O)N[C@H](CCCNC(=N)N)C(N)=O [LV-23] (Ac-[dK][dR][dL][dL][d2Nal][dK][dL][dK][d2Nal][dK][dR]-NH2) | 2 |
| CC(=O)N[C@H](CCCNC(=N)N)C(=O)N[C@H](CCCCN)C(=O)N[C@H](CC(C)C)C(=O)N[C@H](CC(C)C)C(=O)N[C@H](Cc1ccc(F)c(F)c1)C(=O)N[C@H](CCCCN)C(=O)N[C@H](CC(C)C)C(=O)N[C@H](CCCCN)C(=O)N[C@H](Cc1ccc(F)c(F)c1)C(=O)N[C@H](CCCCN)C(=O)N[C@H](CCCNC(=N)N)C(N)=O [LV-6] (Ac-[dR][dK][dL][dL][dPhe(3,4-F2)][dK][dL][dK][dPhe(3,4-F2)][dK][dR]-NH2) | 1 |

---

test system: Candida utilis ATCC 9950; assay type: cell-based
Non-standard residues stand in square brackets, D forms with d. Residues, ends and D or L forms follow the SMILES beside them. dPhe(3,4-F2) = N[C@H](Cc1ccc(F)c(F)c1)C(=O)O; d2Nal = N[C@H](Cc1ccc2ccccc2c1)C(=O)O; dNva = CCC[C@@H](N)C(=O)O

| compound | MIC Candida utilis ATCC 9950 / µg/mL |
| --- | --- |
| CC(=O)N[C@H](CCCCN)C(=O)N[C@H](CCCCN)C(=O)N[C@H](CC(C)C)C(=O)N[C@H](CC(C)C)C(=O)N[C@H](Cc1ccc2ccccc2c1)C(=O)N[C@H](CCCCN)C(=O)N[C@H](CC(C)C)C(=O)N[C@H](CCCCN)C(=O)N[C@H](Cc1ccc2ccccc2c1)C(=O)N[C@H](CCCCN)C(=O)N[C@H](CCCCN)C(N)=O [LV-17] (Ac-[dK][dK][dL][dL][d2Nal][dK][dL][dK][d2Nal][dK][dK]-NH2) | 16 |
| CCC[C@@H](NC(=O)[C@@H](CCCCN)NC(=O)[C@@H](CCCNC(=N)N)NC(C)=O)C(=O)N[C@H](CCC)C(=O)N[C@H](Cc1ccc2ccccc2c1)C(=O)N[C@H](CCCNC(=N)N)C(=O)N[C@H](CCC)C(=O)N[C@H](CCCCN)C(=O)N[C@H](Cc1ccc2ccccc2c1)C(=O)N[C@H](CCCNC(=N)N)C(=O)N[C@H](CCCCN)C(N)=O [LV-13] (Ac-[dR][dK][dNva][dNva][d2Nal][dR][dNva][dK][d2Nal][dR][dK]-NH2) | 8 |
| CC(=O)N[C@H](CCCCN)C(=O)N[C@H](CCCCN)C(=O)N[C@H](CC(C)C)C(=O)N[C@H](CC(C)C)C(=O)N[C@H](Cc1ccc(F)c(F)c1)C(=O)N[C@H](CCCNC(=N)N)C(=O)N[C@H](CC(C)C)C(=O)N[C@H](CCCCN)C(=O)N[C@H](Cc1ccc(F)c(F)c1)C(=O)N[C@H](CCCNC(=N)N)C(=O)N[C@H](CCCCN)C(N)=O [LV-25] (Ac-[dK][dK][dL][dL][dPhe(3,4-F2)][dR][dL][dK][dPhe(3,4-F2)][dR][dK]-NH2) | 8 |
| CC(=O)N[C@H](CCCNC(=N)N)C(=O)N[C@H](CCCCN)C(=O)N[C@H](CC(C)C)C(=O)N[C@H](CC(C)C)C(=O)N[C@H](Cc1ccc2ccccc2c1)C(=O)N[C@H](CCCNC(=N)N)C(=O)N[C@H](CC(C)C)C(=O)N[C@H](CCCCN)C(=O)N[C@H](Cc1ccccc1)C(=O)N[C@H](CCCNC(=N)N)C(=O)N[C@H](CCCCN)C(N)=O [LV-4] (Ac-[dR][dK][dL][dL][d2Nal][dR][dL][dK][dF][dR][dK]-NH2) | 8 |
| CC(=O)N[C@H](CCCNC(=N)N)C(=O)N[C@H](CCCNC(=N)N)C(=O)N[C@H](CC(C)C)C(=O)N[C@H](CC(C)C)C(=O)N[C@H](Cc1ccc2ccccc2c1)C(=O)N[C@H](CCCNC(=N)N)C(=O)N[C@H](CC(C)C)C(=O)N[C@H](CCCNC(=N)N)C(=O)N[C@H](Cc1ccc2ccccc2c1)C(=O)N[C@H](CCCNC(=N)N)C(=O)N[C@H](CCCNC(=N)N)C(N)=O [LV-1] (Ac-[dR][dR][dL][dL][d2Nal][dR][dL][dR][d2Nal][dR][dR]-NH2) | 8 |
| CC(=O)N[C@H](CCCNC(=N)N)C(=O)N[C@H](CCCCN)C(=O)N[C@H](CC(C)C)C(=O)N[C@H](CC(C)C)C(=O)N[C@H](Cc1ccc2ccccc2c1)C(=O)N[C@H](CCCNC(=N)N)C(=O)N[C@H](CC(C)C)C(=O)N[C@H](CCCCN)C(=O)N[C@H](Cc1ccc2ccccc2c1)C(=O)N[C@H](CCCNC(=N)N)C(=O)N[C@H](CCCNC(=N)N)C(N)=O [LV-22] (Ac-[dR][dK][dL][dL][d2Nal][dR][dL][dK][d2Nal][dR][dR]-NH2) | 16 |
